# measuredOn: TTK (human)
# testProtocol: radiometric filter-binding kinase assay
# measurementConditions: compound 0.01 µM
quantityName: residual activity (%)

Worked set:
[
  {
    "compound": "COc1cc(O)c2c(c1)[C@H]1OC1C[C@H](O)[C@H](O)C(=O)/C=C\\C[C@H](C)OC2=O (stereo not given in full)",
    "quantityName": "residual activity",
    "unitLabel": "%",
    "quantitativeReadout": 101
  },
  {
    "compound": "CNc1nc(-c2ccc3c(N)n[nH]c3c2)cc(N2C[C@@H](C(=O)NC3CCCCC3)CC[C@H]2C)n1",
    "quantityName": "residual activity",
    "unitLabel": "%",
    "quantitativeReadout": 90
  },
  {
    "compound": "COc1ccc(N(C(=O)Nc2c(C)cccc2C)c2cc(Nc3ccc(N4CCN(C)CC4)cc3)ncn2)c(OC)c1",
    "quantityName": "residual activity",
    "unitLabel": "%",
    "quantitativeReadout": 100
  }
]

a. O=C(Nc1nc2cc(C(F)(F)F)cc(NC3CC3)n2n1)c1cccnc1
b. CNC(=O)C1[C@H]2O[C@@](C)([C@@H]1N)n1c3ccccc3c3c4c(c5c6ccccc6n2c5c31)C(=O)NC4 (stereo not given in full)
For a and b , which recorded residual activity is lower? When you have decided, please share the label of that item.
b

* * *

# Test system: OXSR1 (human), O95747 [T185E]
# Sequence (O95747 whole entry T185E, looked up): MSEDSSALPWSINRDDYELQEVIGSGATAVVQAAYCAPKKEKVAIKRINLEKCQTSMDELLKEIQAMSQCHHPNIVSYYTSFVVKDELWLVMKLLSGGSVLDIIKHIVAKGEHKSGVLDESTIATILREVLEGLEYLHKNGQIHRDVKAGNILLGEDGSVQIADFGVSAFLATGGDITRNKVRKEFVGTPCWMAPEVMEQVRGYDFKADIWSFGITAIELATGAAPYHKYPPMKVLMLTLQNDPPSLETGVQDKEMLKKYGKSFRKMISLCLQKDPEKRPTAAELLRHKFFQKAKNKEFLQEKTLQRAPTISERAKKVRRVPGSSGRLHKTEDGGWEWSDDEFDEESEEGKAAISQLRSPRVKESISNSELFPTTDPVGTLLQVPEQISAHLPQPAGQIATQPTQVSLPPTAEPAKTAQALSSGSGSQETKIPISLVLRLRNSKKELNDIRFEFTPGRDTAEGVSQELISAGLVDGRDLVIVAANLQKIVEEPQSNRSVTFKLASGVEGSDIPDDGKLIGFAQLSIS
# testProtocol: radiometric filter-binding kinase assay
# measurementConditions: compound 0.1 µM
quantityName: residual activity (%)

[
  {
    "molecule": "Cc1ccc(-c2ccc3c(ccc4sc5c(c43)NC[C@@H](C)NC5=O)n2)cn1",
    "residual activity (%)": 113
  },
  {
    "molecule": "C=CC(=O)N1CCC[C@@H](n2nc(-c3ccc(Oc4ccccc4)cc3)c3c(N)ncnc32)C1",
    "residual activity (%)": 96
  },
  {
    "molecule": "COc1ccc(N(C(=O)Nc2c(C)cccc2C)c2cc(Nc3ccc(N4CCN(C)CC4)cc3)ncn2)c(OC)c1",
    "residual activity (%)": 93
  },
  {
    "molecule": "CN1CCN(CCOc2cc(OC3CCOCC3)c3c(Nc4c(Cl)ccc5c4OCO5)ncnc3c2)CC1",
    "residual activity (%)": 102
  },
  {
    "molecule": "O=C(Nc1nc2cc(C(F)(F)F)cc(NC3CC3)n2n1)c1cccnc1",
    "residual activity (%)": 114
  },
  {
    "molecule": "O=C(NCCCNc1nc(Nc2cccc(CN3CCOCC3)c2)ncc1C1CC1)C1CCC1",
    "residual activity (%)": 83
  },
  {
    "molecule": "COc1ccc(-n2ncc3cnc(Nc4cc(OC)c(OC)c(OCCCN5CCN(C)CC5)c4)nc32)cc1",
    "residual activity (%)": 101
  },
  {
    "molecule": "CCn1c(-c2nonc2N)nc2cncc(CNC3CCNCC3)c21",
    "residual activity (%)": 107
  },
  {
    "molecule": "O=C(N[C@@H](COc1ccc2[nH]c(=O)[nH]c2c1)c1ccccc1)c1cccn(Cc2ccc(F)c(F)c2)c1=O",
    "residual activity (%)": 97
  },
  {
    "molecule": "CN(C)C/C=C/C(=O)Nc1cccc(C(=O)Nc2ccc(Nc3nccc(-c4cccnc4)n3)cc2)c1",
    "residual activity (%)": 99
  }
]

P. Cc1cc(NC(=O)c2cccc(NC(=O)/C=C/CN(C)C)c2)ccc1Nc1nccc(-c2cccnc2)n1
Q. CNC(=O)C1[C@H]2O[C@@](C)([C@@H]1N)n1c3ccccc3c3c4c(c5c6ccccc6n2c5c31)C(=O)NC4 (stereo not given in full)
Form field 'greater residual activity' accepts P or Q ; which applies? Field: selected label. Fill in the label of the entry you choose.
P
(P: 96%, Q: 23%)

* * *

# measuredOn: NEK6 (human) (UniProt Q9HC98)
# Sequence (Q9HC98 whole entry, looked up): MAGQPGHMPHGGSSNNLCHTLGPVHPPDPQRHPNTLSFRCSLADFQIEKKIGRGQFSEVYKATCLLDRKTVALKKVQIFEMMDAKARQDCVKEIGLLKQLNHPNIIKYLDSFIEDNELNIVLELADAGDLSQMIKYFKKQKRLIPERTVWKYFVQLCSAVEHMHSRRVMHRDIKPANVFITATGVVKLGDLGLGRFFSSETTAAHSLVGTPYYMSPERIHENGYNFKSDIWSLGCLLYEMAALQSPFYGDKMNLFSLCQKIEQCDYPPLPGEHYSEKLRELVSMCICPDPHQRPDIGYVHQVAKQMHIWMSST
# testProtocol: radiometric filter-binding kinase assay
# measurementConditions: compound 0.01 µM
quantityName: residual activity (%)

[
  {
    "molecule": "COc1ccc(N(C(=O)Nc2c(C)cccc2C)c2cc(Nc3ccc(N4CCN(C)CC4)cc3)ncn2)c(OC)c1",
    "quantityName": "residual activity",
    "quantitativeReadout": 102
  },
  {
    "molecule": "O=C(Nc1nc2cc(C(F)(F)F)cc(NC3CC3)n2n1)c1cccnc1",
    "quantityName": "residual activity",
    "quantitativeReadout": 114
  },
  {
    "molecule": "COc1cc(O)c2c(c1)[C@H]1OC1C[C@H](O)[C@H](O)C(=O)/C=C\\C[C@H](C)OC2=O (stereo partly specified)",
    "quantityName": "residual activity",
    "quantitativeReadout": 97
  },
  {
    "molecule": "CNc1nc(-c2ccc3c(N)n[nH]c3c2)cc(N2C[C@@H](C(=O)NC3CCCCC3)CC[C@H]2C)n1",
    "quantityName": "residual activity",
    "quantitativeReadout": 98
  },
  {
    "molecule": "CNC(=O)C1[C@H]2O[C@@](C)([C@@H]1N)n1c3ccccc3c3c4c(c5c6ccccc6n2c5c31)C(=O)NC4 (stereo partly specified)",
    "quantityName": "residual activity",
    "quantitativeReadout": 87
  },
  {
    "molecule": "C/C(=C1/C(=O)Nc2ccc(NC(N)=O)cc21)c1ccc[nH]1",
    "quantityName": "residual activity",
    "quantitativeReadout": 84
  }
]

* * *

# measuredOn: TTBK1 (human)
# testProtocol: radiometric filter-binding kinase assay
# measurementConditions: compound 1.0 µM
quantityName: residual activity (%)

[
  {
    "compound": "COc1cc(C(=O)N2CCOCC2)c(F)cc1Nc1ncc(C(F)(F)F)c(NC2CC2)n1",
    "residual activity / %": 96
  },
  {
    "compound": "Cc1cc(NC(=O)c2cccc(NC(=O)/C=C/CN(C)C)c2)ccc1Nc1nccc(-c2cccnc2)n1",
    "residual activity / %": 83
  },
  {
    "compound": "Cc1ccc(-c2ccc3c(ccc4sc5c(c43)NC[C@@H](C)NC5=O)n2)cn1",
    "residual activity / %": 104
  },
  {
    "compound": "COc1ccc(-n2ncc3cnc(Nc4cc(OC)c(OC)c(OCCCN5CCN(C)CC5)c4)nc32)cc1",
    "residual activity / %": 102
  },
  {
    "compound": "CCn1c(-c2nonc2N)nc2cncc(CNC3CCNCC3)c21",
    "residual activity / %": 100
  },
  {
    "compound": "CCNc1nc(Nc2cc(F)c(C(=O)N3CCOCC3)cc2OC)ncc1C(F)(F)F",
    "residual activity / %": 100
  },
  {
    "compound": "C=CC(=O)N1CCC[C@@H](n2nc(-c3ccc(Oc4ccccc4)cc3)c3c(N)ncnc32)C1",
    "residual activity / %": 100
  },
  {
    "compound": "O=C(N[C@@H](COc1ccc2[nH]c(=O)[nH]c2c1)c1ccccc1)c1cccn(Cc2ccc(F)c(F)c2)c1=O",
    "residual activity / %": 110
  },
  {
    "compound": "NCC(=O)Nc1ccc(-n2nc(C(F)(F)F)cc2-c2ccc3c(ccc4ccccc43)c2)cc1",
    "residual activity / %": 88
  },
  {
    "compound": "COc1ccc(N(C(=O)Nc2c(C)cccc2C)c2cc(Nc3ccc(N4CCN(C)CC4)cc3)ncn2)c(OC)c1",
    "residual activity / %": 112
  },
  {
    "compound": "Nc1cccc2c1CN(C1CCC(=O)NC1=O)C2=O (stereo not drawn)",
    "residual activity / %": 106
  },
  {
    "compound": "C=C1C(=O)OC2C1CC/C(C)=C/CCC1(C)OC21 (stereo not drawn)",
    "residual activity / %": 110
  },
  {
    "compound": "CNC(=O)C1[C@H]2O[C@@](C)([C@@H]1N)n1c3ccccc3c3c4c(c5c6ccccc6n2c5c31)C(=O)NC4 (stereo partly drawn)",
    "residual activity / %": 99
  },
  {
    "compound": "CNc1nc(-c2ccc3c(N)n[nH]c3c2)cc(N2C[C@@H](C(=O)NC3CCCCC3)CC[C@H]2C)n1",
    "residual activity / %": 112
  },
  {
    "compound": "CN(C)C/C=C/C(=O)Nc1cccc(C(=O)Nc2ccc(Nc3nccc(-c4cccnc4)n3)cc2)c1",
    "residual activity / %": 79
  },
  {
    "compound": "Cc1ccc(=O)n(-c2ccccc2)c1",
    "residual activity / %": 124
  },
  {
    "compound": "CC1=C(CO)C(=O)O[C@@H]([C@@H](C)[C@H]2CC[C@H]3[C@@H]4C[C@H]5O[C@]56[C@@H](O)C=CC(=O)[C@]6(C)C4CC[C@]23C)C1 (stereo partly drawn)",
    "residual activity / %": 118
  },
  {
    "compound": "CC(C)(C#N)c1ccc(N2C(=O)OCc3cnc4ccc(-c5cnc6ccccc6c5)cc4c32)cc1",
    "residual activity / %": 110
  }
]
